ASSAY SUMMARY: Pharmacokinetic study (LC-MS/MS plasma concentration)
Type: in vivo, Sprague-Dawley rats
CONDITION LABEL: female, Sprague-Dawley, in vivo; ip (40 mg/kg), rat
METRIC NAME: AUC(0-t) (ng·h/mL)
Please respond with the number in ng·h/mL and leave the unit unwritten.

State, in one line, measured AUC(0-t) of CC=C(C)C(=O)OC1C2C(CC(C)C3C=CC(=O)C31C)OC(=O)C2C (stereo not shown)
18000

----------
ASSAY SUMMARY: Pharmacokinetic study (LC-MS/MS plasma concentration)
Format: in vivo, Sprague-Dawley rats
CONDITION LABEL: female, Sprague-Dawley, in vivo; iv (30 mg/kg), rat; read-out: MRT0-t
METRIC NAME: MRT last (h)
The reply should be a number in h, with the unit left off.

Output MRT last of CC=C(C)C(=O)OC1C2C(CC(C)C3C=CC(=O)C31C)OC(=O)C2C (stereo not shown)
1.44

Origin of the recorded values: paper PMC3130785
